# tgt: Rac GTPase-activating protein 1 (Homo sapiens)
# Sequence (Q9H0H5 whole entry): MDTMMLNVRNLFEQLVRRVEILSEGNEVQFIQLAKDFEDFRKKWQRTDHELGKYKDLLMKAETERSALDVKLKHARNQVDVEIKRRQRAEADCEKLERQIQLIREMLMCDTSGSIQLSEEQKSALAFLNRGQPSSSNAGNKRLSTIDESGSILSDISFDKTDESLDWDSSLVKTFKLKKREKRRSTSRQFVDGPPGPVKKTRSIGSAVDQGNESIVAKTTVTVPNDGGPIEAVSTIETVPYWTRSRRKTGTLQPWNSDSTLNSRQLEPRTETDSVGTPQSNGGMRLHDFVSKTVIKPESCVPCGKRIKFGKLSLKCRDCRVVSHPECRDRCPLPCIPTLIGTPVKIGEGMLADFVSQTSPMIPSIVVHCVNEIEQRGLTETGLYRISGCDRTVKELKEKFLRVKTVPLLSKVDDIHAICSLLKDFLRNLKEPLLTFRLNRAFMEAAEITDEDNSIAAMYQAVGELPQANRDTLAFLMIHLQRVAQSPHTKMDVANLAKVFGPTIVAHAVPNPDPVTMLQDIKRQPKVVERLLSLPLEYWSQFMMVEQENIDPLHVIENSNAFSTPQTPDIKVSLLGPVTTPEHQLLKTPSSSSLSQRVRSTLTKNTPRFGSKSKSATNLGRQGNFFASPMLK
# procedure summary: blockers of MgcRacGAP-driven Rac1 GTP hydrolysis – biochemical, ADP Hunter fluorescence, primary and confirmatory, confirmation (AID 624330)
# Assay type: functional
Activity calls are given as the source filed them.

- compound string: "OCCNCCSc1nc(C2CCCCC2)n(-c2ccccc2Cl)n1"
  tgt: "Rac GTPase-activating protein 1 (Homo sapiens)"
  IC50: "120 µM (active)"
- compound string: "CCN1/C(=C\\c2ccc3ccccc3[n+]2CC)Sc2cc(C)ccc21"
  tgt: "Rac GTPase-activating protein 1 (Homo sapiens)"
  IC50: "81.3 µM (active)"
- compound string: "Nc1ccc2c(c1)OC1(CCCC1)O2"
  tgt: "Rac GTPase-activating protein 1 (Homo sapiens)"
  IC50: "31.5 µM (active)"
- compound string: "O=C1c2ccccc2C(=O)C1c1ccc(O)cc1"
  tgt: "Rac GTPase-activating protein 1 (Homo sapiens)"
  IC50: "172 µM (active)"
- compound string: "O=C(NC(=S)Nc1ccc(O)cc1)C1CCCC1"
  tgt: "Rac GTPase-activating protein 1 (Homo sapiens)"
  IC50: "29.6 µM (active)"

====

# tgt: Luciferin 4-monooxygenase (Photinus pyralis, UniProt P08659)
# Sequence (P08659 whole entry): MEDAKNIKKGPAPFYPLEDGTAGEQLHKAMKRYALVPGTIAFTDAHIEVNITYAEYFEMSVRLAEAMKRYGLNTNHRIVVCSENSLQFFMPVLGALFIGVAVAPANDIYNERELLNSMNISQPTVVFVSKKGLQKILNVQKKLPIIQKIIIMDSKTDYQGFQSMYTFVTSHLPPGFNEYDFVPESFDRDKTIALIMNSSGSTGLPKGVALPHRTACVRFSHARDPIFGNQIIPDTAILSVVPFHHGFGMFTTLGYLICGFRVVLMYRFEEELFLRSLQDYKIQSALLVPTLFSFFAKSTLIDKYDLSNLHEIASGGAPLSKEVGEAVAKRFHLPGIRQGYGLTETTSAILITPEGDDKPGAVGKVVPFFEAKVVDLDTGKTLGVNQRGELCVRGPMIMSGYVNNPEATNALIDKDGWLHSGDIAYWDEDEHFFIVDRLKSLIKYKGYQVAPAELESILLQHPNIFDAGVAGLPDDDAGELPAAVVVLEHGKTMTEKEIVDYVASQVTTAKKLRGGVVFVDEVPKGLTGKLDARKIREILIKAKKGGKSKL
# procedure summary: inhibition of purified Photinus pyralis luciferase – biochemical, luminescence, dose response (AID 1891)
Active and inactive are the calls of the source.

- compound: "CCOc1ccccc1C(=O)Nc1cnc(O)nc1O"
  EC50: "> 112 µM (not active)"
- compound: "Cc1cccc(-c2nc3cc(NC(=O)C4CCCO4)ccc3o2)c1 (centres undefined)"
  EC50: "1.51 µM (active)"
- compound: "O=S(=O)(NCCc1cn2ccccc2n1)c1ccc2c(c1)CCCC2"
  EC50: "> 112 µM (not active)"
- compound: "O=C(Nn1cnnc1)c1ccccc1CCc1ccccc1"
  EC50: "> 112 µM (not active)"

====

Reported AC50 values for the following compounds.
# tgt: UniProt P55789
# Sequence (P55789 whole entry): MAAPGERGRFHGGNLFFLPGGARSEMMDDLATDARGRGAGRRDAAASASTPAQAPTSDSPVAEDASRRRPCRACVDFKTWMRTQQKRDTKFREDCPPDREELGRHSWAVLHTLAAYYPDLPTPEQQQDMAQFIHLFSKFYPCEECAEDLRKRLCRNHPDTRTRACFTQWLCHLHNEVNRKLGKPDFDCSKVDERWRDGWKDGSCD
# procedure summary: ALR-catalysed DTT oxidation blockers – biochemical, H2O2 detection, luminescence, cherry-pick, dose response (AID 493248)
Active and inactive are the calls of the source.
parameter: AC50

- compound: "Oc1cc2c(cc1O)C(c1ccccc1)CNCC2 (stereo not given)"
  reported result: "5.38 µM (active)"
- compound: "Cc1cc(C)c(S(=O)(=O)Nc2ccc(O)cc2)c(C)c1"
  reported result: "0.694 µM (active)"
- compound: "CN(c1ccccc1)S(=O)(=O)c1cccc(C(=O)NCCc2ccc(O)c(O)c2)c1"
  reported result: "4.37 µM (active)"
- compound: "COc1ccccc1N1CCN(CCc2nnc(S)n2-c2ccccc2)CC1"
  reported result: "2.88 µM (active)"
- compound: "Cc1ccc(/C=C2\\C(=O)NC(=O)N(Cc3ccccc3Cl)C2=O)o1"
  reported result: "0.494 µM (active)"

====

# tgt: Cytochrome P450 1A2 (Homo sapiens, UniProt P05177)
# Sequence (P05177 whole entry): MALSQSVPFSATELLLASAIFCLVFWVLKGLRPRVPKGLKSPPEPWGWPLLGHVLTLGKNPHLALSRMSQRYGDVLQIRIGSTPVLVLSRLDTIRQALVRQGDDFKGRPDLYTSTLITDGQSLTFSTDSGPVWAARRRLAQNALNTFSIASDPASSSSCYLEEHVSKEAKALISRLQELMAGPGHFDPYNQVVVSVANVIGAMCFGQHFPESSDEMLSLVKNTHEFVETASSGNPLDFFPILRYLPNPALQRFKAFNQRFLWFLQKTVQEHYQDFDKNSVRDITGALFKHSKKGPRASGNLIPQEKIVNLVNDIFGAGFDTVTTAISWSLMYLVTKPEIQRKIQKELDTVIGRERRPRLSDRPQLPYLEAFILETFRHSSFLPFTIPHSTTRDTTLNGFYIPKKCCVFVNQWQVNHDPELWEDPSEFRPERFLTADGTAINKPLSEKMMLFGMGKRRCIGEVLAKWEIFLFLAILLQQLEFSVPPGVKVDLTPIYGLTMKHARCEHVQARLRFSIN
Reported AC50 values for the following molecules.

- compound string: "O=C(Nc1nc2ccccc2n1Cc1ccccc1)c1ccc(COc2ccccc2[N+](=O)[O-])o1"
  tgt: "Cytochrome P450 1A2 (Homo sapiens, UniProt P05177)"
  AC50: "1.78 µM (inconclusive)"
- compound string: "COc1ccc(S(=O)(=O)Nc2cccc(Cl)c2)cc1OC"
  tgt: "Cytochrome P450 1A2 (Homo sapiens, UniProt P05177)"
  AC50: "31.6 µM (inconclusive)"
- compound string: "COc1cc(/C=C/C(=O)Nc2cc(C(F)(F)F)ccc2Cl)cc(OC)c1OC"
  tgt: "Cytochrome P450 1A2 (Homo sapiens, UniProt P05177)"
  AC50: "15.8 µM (inconclusive)"
- compound string: "COC(=O)COc1ccsc1C(=O)OC"
  tgt: "Cytochrome P450 1A2 (Homo sapiens, UniProt P05177)"
  AC50: "28.2 µM (inconclusive)"
- compound string: "COc1ccc(N2CCN(c3nc(Nc4ccc(F)cc4)nc(OC)n3)CC2)cc1"
  tgt: "Cytochrome P450 1A2 (Homo sapiens, UniProt P05177)"
  AC50: "3.16 µM (inconclusive)"
- compound string: "CC=C(/C(=C/C)c1ccc(O)cc1)c1ccc(O)cc1"
  tgt: "Cytochrome P450 1A2 (Homo sapiens, UniProt P05177)"
  AC50: "15.8 µM (inconclusive)"
- compound string: "Nc1nc(Cl)cc(N2CCC(c3cc(-c4ccc(Cl)cc4Cl)[nH]n3)CC2)n1"
  tgt: "Cytochrome P450 1A2 (Homo sapiens, UniProt P05177)"
  AC50: "6.31 µM (inconclusive)"
- compound string: "Cc1nn(-c2ccccc2)c(Cl)c1C(=O)Nc1c(C)n(C)n(-c2ccccc2)c1=O"
  tgt: "Cytochrome P450 1A2 (Homo sapiens, UniProt P05177)"
  AC50: "5.01 µM (inconclusive)"
- compound string: "CCCOC(=O)c1c(NC(=O)/C=C/c2cnn(C)c2C)sc(C(=O)OCC)c1C"
  tgt: "Cytochrome P450 1A2 (Homo sapiens, UniProt P05177)"
  AC50: "17.8 µM (inconclusive)"
- compound string: "O=C(Nc1ccc(C(F)(F)F)cc1)c1cccn(Cc2ccc3c(c2)OC(F)(F)O3)c1=O"
  tgt: "Cytochrome P450 1A2 (Homo sapiens, UniProt P05177)"
  AC50: "25.1 µM (inconclusive)"

Numbers sourced from ChEMBL document CHEMBL1201862.
